# System: MS2 coat protein
# PROTOCOL TEXT: apparent KD of MS2 coat protein; designed switch direction (-1 OFF switch, 1 ON switch): -1; higher = weaker reporter binding
# EXPERIMENTAL PARAMETERS: input ligand: FMN 200 uM
// reported apparent KD of MS2 coat protein for each item listed

INPUT SEQUENCE: AAUCAUCAUGUAGGAUAUGCGUGGCGAAGCUAUGCAGAAGGACAUGAGGAUCACCCAUGUUCUUGCGUCUGCGUACAGAUGCAA [Mat - Exclusion NG 1 - Mod of JL - D72] (Eterna round: R96, puzzle: Exclusion NG 1)
TESTED SYSTEM: MS2 coat protein
apparent KD of MS2 coat protein: 135 nM
--
INPUT SEQUENCE: AAUAAGCGAGGAUAUACUAUUCCUCGACCGGCAGAAACCGGACUUGAGGAUCACCCAAGUAGAAGGCGCAAAAC [Oninso] (Eterna round: R97, puzzle: Exclusion 2)
TESTED SYSTEM: MS2 coat protein
apparent KD of MS2 coat protein: 448 nM
--
INPUT SEQUENCE: UUAUUAGCAGGAUAUAUCCAGGAUUACAUGAGGAUCACCCAUGUGGCCGCUUGAAAUUCUAUAGAAGGGCUUUAUU [Mod of ViennaUCT 36 - Jieux - Exclusion 5] (Eterna round: R97, puzzle: Exclusion 5)
TESTED SYSTEM: MS2 coat protein
apparent KD of MS2 coat protein: 52.7 nM
--
INPUT SEQUENCE: AGAGUGCUGCGAGGAUAUACAUGAGGAUCACCCAUGUAAUCGUGUGAGGCAAAGCCUCACACGAUGUAGAAGGCGCAGUACUCA [Mat - Exclusion NG 2 - Mod of JL - D24] (Eterna round: R96, puzzle: Exclusion NG 2)
TESTED SYSTEM: MS2 coat protein
apparent KD of MS2 coat protein: 13.1 nM
